# MEASUREMENT TARGET: CYP2D6 (Homo sapiens, UniProt P10635)
# Sequence (P10635 whole entry): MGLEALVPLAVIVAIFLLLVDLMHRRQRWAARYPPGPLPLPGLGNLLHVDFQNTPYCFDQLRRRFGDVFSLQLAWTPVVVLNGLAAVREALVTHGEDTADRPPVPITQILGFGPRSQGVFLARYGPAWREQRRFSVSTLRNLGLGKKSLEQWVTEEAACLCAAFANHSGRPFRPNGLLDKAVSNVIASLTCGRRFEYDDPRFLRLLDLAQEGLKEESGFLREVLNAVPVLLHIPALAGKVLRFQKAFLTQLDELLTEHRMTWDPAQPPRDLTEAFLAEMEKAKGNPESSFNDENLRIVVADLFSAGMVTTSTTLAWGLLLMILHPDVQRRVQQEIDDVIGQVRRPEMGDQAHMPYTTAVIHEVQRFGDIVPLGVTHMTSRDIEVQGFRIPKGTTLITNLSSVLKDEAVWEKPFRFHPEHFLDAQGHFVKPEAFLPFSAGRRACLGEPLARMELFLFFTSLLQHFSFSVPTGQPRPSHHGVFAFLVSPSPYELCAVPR
# ASSAY EXPLANATION: CYP2D6 inhibition assay (bufuralol, pooled human liver microsomes)
# ASSAY SETUP: 2D6 IC50, CYP enzyme inhibition
TEST READOUT: IC50

Previously resolved entries follow.
Reported IC50, compound COCC(=O)N[C@@H](Cc1cccc(-c2nccs2)c1)[C@H](O)CN[C@H]1CC2(CCC2)Oc2ncc([C@@H]3CC3(C)C)cc21 [compound 857] : ____
0.35 µM

Another compound: CCOCC(=O)N[C@@H](Cc1cccc(-c2nccs2)c1)[C@H](O)CN[C@H]1CC2(CCC2)Oc2ncc([C@@H]3CC3(C)C)cc21 [compound 914]
0.2 µM

Another compound: CCC(=O)N[C@@H](Cc1cc(F)cc(-c2nccs2)c1)[C@H](O)CN[C@H]1CC2(CCC2)Oc2ncc(CC(C)(C)C)cc21 [compound 860]
0.3 µM

Another compound: C#Cc1cccc(C[C@H](NC(=O)[C@@H](C)OC)[C@H](O)CN[C@H]2CC3(CCC3)Oc3ncc(CC(C)(C)C)cc32)c1F [compound 912]
6.3 µM

Another compound: CO[C@H](C)C(=O)N[C@@H](Cc1ccc2c(c1)OCO2)[C@H](O)CN[C@H]1CC2(CCC2)Oc2c1cc(CC(C)(C)C)nc2N(C)C [compound 444]
9.4 µM

In the following, a different compound is considered.
Reported IC50, compound COCC(=O)N[C@@H](Cc1cc(F)cc(F)c1)[C@H](O)CN[C@H]1CC2(CCC2)Oc2c(-c3nccs3)cc(CC(C)(C)C)cc21 [compound 463] : ____
7.2 µM

Attribution: patent US8163909B2
